# targetUnderTest: UniProt Q9Y5X4
# Sequence (Q9Y5X4 whole entry): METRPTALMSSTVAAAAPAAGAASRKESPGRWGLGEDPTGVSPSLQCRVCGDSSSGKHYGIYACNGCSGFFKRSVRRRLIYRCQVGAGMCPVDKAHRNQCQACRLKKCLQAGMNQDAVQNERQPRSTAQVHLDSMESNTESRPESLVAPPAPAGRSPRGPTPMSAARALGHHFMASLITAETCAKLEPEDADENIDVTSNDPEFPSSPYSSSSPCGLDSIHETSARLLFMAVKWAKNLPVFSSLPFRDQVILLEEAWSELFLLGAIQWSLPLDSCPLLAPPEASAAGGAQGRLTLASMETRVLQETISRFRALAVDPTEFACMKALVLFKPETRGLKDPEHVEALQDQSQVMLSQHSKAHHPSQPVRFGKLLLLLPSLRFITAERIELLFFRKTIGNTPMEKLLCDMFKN
# Format: functional, cell-based
The source made the active and inactive calls.
readoutType: IC50

Completed entries (count: 4):
In [3]: df
Out[3]:
                                     smiles             result
0  Cc1nc2ncnn2c(N2CCN(c3cccc(C(F)(F)F)c3)CC2)c1C  0.838 µM (active)
1  Cc1ccc(S(=O)(=O)c2ccc([N+](=O)[O-])o2)cc1    2.9 µM (active)
2  O=C1/C(=C\c2ccc([N+](=O)[O-])cc2)CS(=O)(=O)C/C1=C/c1ccc([N+](=O)[O-])cc1      2 µM (active)
3  C=CCn1c(C)cc(C(=O)COc2ccc(C)nc2[N+](=O)[O-])c1C   4.69 µM (active)

Read the next record carefully.
Quick note, IC50 for O=C1N/C(=C\c2ccc(O)cc2)C(O)=C1/C=N/Cc1ccccc1 landed at 3.35 µM (active)

Source: ChEMBL document CHEMBL1201862
